# Tested on: SK-OV-3
# METHOD_DESCRIPTION: In vitro cytotoxicity, SK-OV-3 ovarian carcinoma
# Type: cell-based
# CONDITION_DETAILS: Homo sapiens, SK-OV-3, read-out: Anti-cell proliferative activity IC50, SK-OV-3
*1 amine or outer side, *2 acyl side, *3 side chain or, on linkers, in order; H or OH if unused. Where a SMILES comes first, the peptide text is derived from it. Bridges are numbered along the chain shown (N, C = ends). [ ]: non-standard residue; d: D form. X1 = CC[C@H](C)[C@@H](N[*:1])[C@@H](O)CC(=O)O[C@H](C(=O)[C@H](C)C(=O)[*:2])C(C)C; X2 = CC(C(=O)C(OC(=O)CC(O)C(N[*:1])C(C)C)C(C)C)C(=O)[*:2]; X3 = COc1ccc(CC(C(=O)[*:2])N(C)[*:1])cc1Cl; NMeY = CN[C@@H](Cc1ccc(O)cc1)C(=O)O; dNMeL = CN[C@H](CC(C)C)C(=O)O; NMeL = CN[CH](CC(C)C)C(=O)O
RESULT_TYPE: IC50 (nM)

1) CNC(CC(C)C)C(=O)NC1C(=O)NC(C(C)C)C(O)CC(=O)OC(C(C)C)C(=O)C(C)C(=O)NC(CC(C)C)C(=O)N2CCCC2C(=O)N(C)C(Cc2ccc(OC)c(Cl)c2)C(=O)OC1C (stereo not shown) [Compound 2] (H-[NMeL]T[X2]LP[X3]; ester 2-C; configuration not given here) | 380
2) CC[C@H](C)[C@H]1NC(=O)[C@@H](NC(=O)[C@@H](CC(C)C)N(C)C(=O)[C@@H]2CCCN2C(=O)C(C)O)[C@@H](C)OC(=O)[C@H](Cc2ccc(OC)cc2)N(C)C(=O)[C@@H]2CCCN2C(=O)[C@H](CC(C)C)NC(=O)[C@@H](C)C(=O)[C@H](C(C)C)OC(=O)C[C@@H]1O (stereo partly shown) | 100
3) CCC(C)C1NC(=O)C(NC(=O)C(CC(C)C)NC)C(C)OC(=O)C(Cc2ccc(OC)c(Cl)c2)N(C)C(=O)C2CCCN2C(=O)C(CC(C)C)NC(=O)C(C)C(=O)C(C(C)C)OC(=O)CC1O (stereo not shown) | 260
4) CC[C@H](C)[C@H]1NC(=O)[C@@H](NC(=O)[C@@H](CC(C)C)NC)[C@@H](C)OC(=O)[C@H](Cc2ccc(OC)cc2)N(C)C(=O)[C@@H]2CCCN2C(=O)[C@H](CC(C)C)NC(=O)[C@@H](C)C(=O)[C@H](C(C)C)OC(=O)C[C@@H]1O [Compound 3, didemnin A] (H-[dNMeL]T[X1]LP[NMeY](Me); ester 2-C) | 160

====

Recorded pIC50 by entry
# EXPERIMENTAL_TARGET: inducible nitric oxide synthase (iNOS) (Mus musculus)
# Construct: endogenous in cells; host or cells: RAW264.7 macrophages, LPS induced
# Sequence (P29477 whole entry): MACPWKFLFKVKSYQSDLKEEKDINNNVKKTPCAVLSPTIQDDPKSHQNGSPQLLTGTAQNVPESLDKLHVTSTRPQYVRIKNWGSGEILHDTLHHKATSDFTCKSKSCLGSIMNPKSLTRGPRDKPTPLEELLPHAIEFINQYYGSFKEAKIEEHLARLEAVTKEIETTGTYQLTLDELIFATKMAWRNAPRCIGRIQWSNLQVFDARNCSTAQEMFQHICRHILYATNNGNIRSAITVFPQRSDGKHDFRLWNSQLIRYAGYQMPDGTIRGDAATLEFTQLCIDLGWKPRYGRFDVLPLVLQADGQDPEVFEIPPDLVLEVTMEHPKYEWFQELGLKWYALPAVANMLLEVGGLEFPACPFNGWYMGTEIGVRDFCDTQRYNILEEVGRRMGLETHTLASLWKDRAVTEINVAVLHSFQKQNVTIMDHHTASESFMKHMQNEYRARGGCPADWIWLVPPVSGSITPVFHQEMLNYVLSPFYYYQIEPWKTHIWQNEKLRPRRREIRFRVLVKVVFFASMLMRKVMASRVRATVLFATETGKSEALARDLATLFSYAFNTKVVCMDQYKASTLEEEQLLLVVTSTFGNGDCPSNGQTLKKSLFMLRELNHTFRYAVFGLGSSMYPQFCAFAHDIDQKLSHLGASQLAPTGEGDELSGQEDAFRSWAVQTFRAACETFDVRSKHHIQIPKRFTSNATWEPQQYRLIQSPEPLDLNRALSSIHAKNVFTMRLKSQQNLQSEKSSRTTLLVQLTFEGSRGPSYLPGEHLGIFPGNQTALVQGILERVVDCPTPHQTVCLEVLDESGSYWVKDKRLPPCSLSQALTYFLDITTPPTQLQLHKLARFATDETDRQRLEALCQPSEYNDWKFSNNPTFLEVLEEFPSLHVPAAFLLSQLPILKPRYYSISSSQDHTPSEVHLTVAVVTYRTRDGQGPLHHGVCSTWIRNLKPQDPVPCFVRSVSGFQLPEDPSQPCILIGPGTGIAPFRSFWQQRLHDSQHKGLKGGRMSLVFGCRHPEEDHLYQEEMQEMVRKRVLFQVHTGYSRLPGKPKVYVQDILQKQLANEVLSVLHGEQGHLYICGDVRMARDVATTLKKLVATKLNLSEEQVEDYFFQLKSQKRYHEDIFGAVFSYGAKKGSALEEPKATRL
# METHOD_DESCRIPTION: Inhibition of iNOS activity in LPS induced macrophages (RAW264.7 cells)
# Type: cell-based
# CONDITION_DETAILS: RAW264.7 cells, LPS induced; read-out: iNOS inhibition IC50
pIC50: −log10 of the molar value. *1 amine or outer side, *2 acyl side, *3 side chain or, on linkers, in order; H or OH if unused. Where a SMILES comes first, the peptide text is derived from it. Bridges are numbered along the chain shown (N, C = ends). [ ]: non-standard residue; d: D form. X2 = CC(C(=O)C(OC(=O)CC(O)C(N[*:1])C(C)C)C(C)C)C(=O)[*:2]; X3 = COc1ccc(CC(C(=O)[*:2])N(C)[*:1])cc1Cl; NMeL = CN[CH](CC(C)C)C(=O)O
RESULT_TYPE: pIC50

1. CNC(CC(C)C)C(=O)NC1C(=O)NC(C(C)C)C(O)CC(=O)OC(C(C)C)C(=O)C(C)C(=O)NC(CC(C)C)C(=O)N2CCCC2C(=O)N(C)C(Cc2ccc(OC)c(Cl)c2)C(=O)OC1C (stereo not drawn) [Compound 2] (H-[NMeL]T[X2]LP[X3]; ester 2-C; configuration not given here) | 6.38
2. C=C1C(=O)O[C@H]2[C@H]1CC/C(C)=C/CC[C@@]1(C)O[C@@H]21 [Parthenolide, reference compound] | 5.55
3. CCC(C)C1NC(=O)C(NC(=O)C(CC(C)C)NC)C(C)OC(=O)C(Cc2ccc(OC)c(Cl)c2)N(C)C(=O)C2CCCN2C(=O)C(CC(C)C)NC(=O)C(C)C(=O)C(C(C)C)OC(=O)CC1O (stereo not drawn) | 6.40

FYI, the data here is from paper PMC3853740.
